B1: library; a variant is named by its letters at N, in order (parent)
chain: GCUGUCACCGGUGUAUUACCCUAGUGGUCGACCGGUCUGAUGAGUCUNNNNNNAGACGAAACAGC

Variants of: B1
Test: normalized RNA/DNA level with ligand (relative to sTRSVctl = 100) (log10 (% of sTRSVctl)); ligand: hypoxanthine (xanthine aptamer); higher = less ribozyme self-cleavage, higher mRNA level
Details: ligand concentration (+) RNA-Seq: 5 mM, HEK293T, reporter: mCherry (pCS4076), ligand present: yes
Each record here notes measured normalized RNA/DNA level with ligand (log10).
No unit in the answer, please; the number alone is enough.

Solved cases below.
- variant_label: "ACGUUA"
  reported_value: 1.87
- variant_label: "UAGCCG"
  reported_value: 1.98
- variant_label: "CUUAUG"
  reported_value: 1.91
- variant_label: "AUAGCG"
  reported_value: 1.87
- variant_label: "ACUGGA"
  reported_value: 1.95

If you can, please state the reported normalized RNA/DNA level with ligand (log10) value of UAGUGA .
1.88

Further, for CAAGGC ?
1.94
